- METHOD NOTES: TOX21_PR_BLA_Followup_Antagonist_viability: Viability Assessment in the Tox21 HEK293 Progesterone Receptor (PR) Antagonism Beta-lactamase Follow-Up Assay (AID 2283936);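 also: cells exposed to compound with R5020 agonist for 16 h; hits lower the luminescence signal meaning cytotoxicity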
Inconclusive results are not listed. Calls of active or inactive are those of the source. The calls were made as follows: active = hit-call score of the fitted dose curve at least 0.9, where 1 is the maximum; inconclusive = response in the unintended direction; inactive = score below 0.9.
Possible outcomes: active, inactive

{"COMPOUND STRUCTURE STRING": "C[C@]12CCC(=O)C=C1CC[C@@H]1[C@@H]2C(=O)C[C@@]2(C)[C@H]1CC[C@]2(O)C(=O)CO", "CATEGORY": "inactive"}
{"COMPOUND STRUCTURE STRING": "C[C@]12C=CC(=O)C=C1CC[C@@H]1[C@@H]2[C@@H](O)C[C@@]2(C)[C@H]1CC[C@]2(O)C(=O)CO", "CATEGORY": "inactive"}
{"COMPOUND STRUCTURE STRING": "Cc1ccc(C(C)c2ccc(C)c(C)c2)cc1C", "CATEGORY": "inactive"}
{"COMPOUND STRUCTURE STRING": "CC(C)(c1cc(Br)c(OCCO)c(Br)c1)c1cc(Br)c(OCCO)c(Br)c1", "CATEGORY": "active"}
{"COMPOUND STRUCTURE STRING": "CCC(=O)Oc1ccc(/C(CC)=C(\\CC)c2ccc(OC(=O)CC)cc2)cc1", "CATEGORY": "inactive"}

---

- SYSTEM: Paired box protein Pax-6 (Homo sapiens)
- METHOD NOTES: ATG_Pax6_CIS: Attagene CIS-FACTORIAL HepG2 Assay for human Paired Box 6 (PAX6) (AID 2282956)
- STUDY CONDITIONS: HepG2 CIS-FACTORIAL PAX6 reporter transcription, RNA readout; actives raise or lower the signal
Active and inactive are the calls of the source. How the source made its calls: active means hit-call score of the fitted dose curve at least 0.9, where 1 is the maximum; inactive means score below 0.9.
Possible outcomes: 1.0 for active, 0.0 for inactive

{"COMPOUND": "CCOCC(=O)O", "CATEGORY": 0.0}
{"COMPOUND": "CC/C=C\\CCOC(=O)CCCCC", "CATEGORY": 0.0}
{"COMPOUND": "C=CC(=O)OCCOC1C2CCC1C1CC=CC12 (stereo not given)", "CATEGORY": 0.0}
{"COMPOUND": "Cc1ccc(OC(=O)CC(C)C)cc1", "CATEGORY": 0.0}
{"COMPOUND": "CC1OC1C1CCC2(C)OC2C1 (stereo not given)", "CATEGORY": 0.0}
{"COMPOUND": "C=C1[C@H]2CC[C@@H]3[C@H]2C(C)(C)CCC[C@]13C", "CATEGORY": 0.0}
{"COMPOUND": "CNC(=S)NN", "CATEGORY": 0.0}
{"COMPOUND": "OC1CCCCCCCCCCC1", "CATEGORY": 0.0}
{"COMPOUND": "O=C1CCCC(=O)O1", "CATEGORY": 0.0}
{"COMPOUND": "CC/C=C\\C/C=C\\C/C=C\\CCCCCCCC(=O)O", "CATEGORY": 1.0}
{"COMPOUND": "c1ccc(CCCc2ccncc2)cc1", "CATEGORY": 0.0}
{"COMPOUND": "CC(C)(C)c1ccc(-c2ccc(C(C)(C)C)cc2)cc1", "CATEGORY": 0.0}
{"COMPOUND": "CC(CC=O)c1ccccc1 (stereo not given)", "CATEGORY": 0.0}
{"COMPOUND": "CC(C)(C)c1n[nH]c(=O)n(N)c1=O", "CATEGORY": 0.0}
{"COMPOUND": "CCCCCCCCCCCCCCCC[n+]1ccccc1", "CATEGORY": 0.0}

---

- METHOD NOTES: ATG_TCF_b_cat_CIS: Attagene CIS-FACTORIAL HepG2 Assay for human T-Cell-Factor with beta-catenin (TCF/b-cat) (AID 2282965)
- STUDY CONDITIONS: HepG2 TCF/beta-catenin cis-reporter transcription, actives raise or lower the signal
Active and inactive are the calls of the source. How the source made its calls: active means hit-call score of the fitted dose curve at least 0.9, where 1 is the maximum; inactive means score below 0.9.

{"COMPOUND": "O=C1CCCCCN1SSN1CCCCCC1=O", "AC50": "inactive"}
{"COMPOUND": "CCCNC(=O)NS(=O)(=O)c1ccc(Cl)cc1", "AC50": "inactive"}
{"COMPOUND": "C=C(C)c1cccc(C(C)(C)N=C=O)c1", "AC50": "inactive"}
{"COMPOUND": "C=CC(=O)OCCOC(=O)C=C", "AC50": "26.7 µM (active)"}
{"COMPOUND": "Cc1oncc1C(=O)Nc1ccc(C(F)(F)F)cc1", "AC50": "inactive"}
{"COMPOUND": "CCCCCCCC(C)=O", "AC50": "inactive"}
{"COMPOUND": "CCC(Cc1ccccc1)(C(=O)c1ccc(N2CCOCC2)cc1)N(C)C (stereo unspecified)", "AC50": "49.8 µM (active)"}
{"COMPOUND": "CC1(C)[C@H]2CC[C@]1(C)C(=O)C2", "AC50": "inactive"}
{"COMPOUND": "CCCCCCOc1cc(C)c(O)c(C)c1C", "AC50": "inactive"}
{"COMPOUND": "Oc1ccc(Cl)cc1Cc1cc(Cl)ccc1O", "AC50": "18.8 µM (active)"}
{"COMPOUND": "CCc1nccnc1C", "AC50": "inactive"}
{"COMPOUND": "N[C@H]1C(O)O[C@H](CO)[C@H](O)[C@@H]1O (stereo partly specified)", "AC50": "inactive"}
{"COMPOUND": "CCCCCCCCCCCCCCCCCC#N", "AC50": "inactive"}
{"COMPOUND": "O=C(O)CCCCCCCCCC(=O)O", "AC50": "inactive"}
{"COMPOUND": "C=CCOCC(O)CCl (stereo unspecified)", "AC50": "inactive"}
{"COMPOUND": "CCCCCCCC/C=C\\CCCCCCCC(=O)O", "AC50": "inactive"}
{"COMPOUND": "OC1OCCOC1O (stereo unspecified)", "AC50": "inactive"}
{"COMPOUND": "c1ccc2c(c1)ccc1cc3c(ccc4ccccc43)cc12", "AC50": "inactive"}
{"COMPOUND": "CN(C)c1ccc(N=Nc2ccccc2C(=O)O)cc1", "AC50": "31.4 µM (active)"}
{"COMPOUND": "CC(C)CCCC(C)CC=O (stereo unspecified)", "AC50": "inactive"}
{"COMPOUND": "CC(C)(C)c1ccc(OC(=O)c2ccccc2O)cc1", "AC50": "inactive"}
{"COMPOUND": "C1=CCCC1", "AC50": "inactive"}
{"COMPOUND": "C=C(C)CCO", "AC50": "inactive"}
{"COMPOUND": "CCN(CCC#N)c1ccc(N=Nc2c(Cl)cc([N+](=O)[O-])cc2Cl)cc1", "AC50": "inactive"}
{"COMPOUND": "NC(CO)(CO)CO", "AC50": "inactive"}
{"COMPOUND": "CCOC(F)(F)C(F)(F)C(F)(F)C(F)(F)F", "AC50": "inactive"}
{"COMPOUND": "COC(=O)c1ccc2cc(C(=O)OC)ccc2c1", "AC50": "inactive"}
{"COMPOUND": "CCOC(=O)N1CCC(=C2c3ccc(Cl)cc3CCc3cccnc32)CC1", "AC50": "8.07 µM (active)"}
{"COMPOUND": "COC(=O)/C=C\\C(=O)O", "AC50": "inactive"}
{"COMPOUND": "COC(=O)c1ccccc1OC", "AC50": "inactive"}
{"COMPOUND": "CCC(CC)C(=O)O", "AC50": "inactive"}

---

- SYSTEM: Retinoic acid receptor RXR-alpha (Homo sapiens) (UniProt P19793)
- Sequence (P19793 whole entry, looked up): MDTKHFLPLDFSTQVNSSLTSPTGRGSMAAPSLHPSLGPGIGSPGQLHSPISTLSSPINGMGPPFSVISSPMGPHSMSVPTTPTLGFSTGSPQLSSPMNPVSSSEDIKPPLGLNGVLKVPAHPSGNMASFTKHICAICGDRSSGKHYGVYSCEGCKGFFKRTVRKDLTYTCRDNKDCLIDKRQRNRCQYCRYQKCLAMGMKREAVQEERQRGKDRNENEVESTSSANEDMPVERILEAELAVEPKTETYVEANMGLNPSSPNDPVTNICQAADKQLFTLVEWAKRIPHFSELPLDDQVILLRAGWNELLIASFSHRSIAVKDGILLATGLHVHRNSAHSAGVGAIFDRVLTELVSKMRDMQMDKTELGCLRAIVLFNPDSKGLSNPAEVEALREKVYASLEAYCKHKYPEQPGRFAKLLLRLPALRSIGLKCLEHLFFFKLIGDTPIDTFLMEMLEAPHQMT
- METHOD NOTES: ATG_RXRa_TRANS: Attagene TRANS-FACTORIAL HepG2 Assay for human Retinoid X Receptor alpha (RXRa) (AID 2283012)
Inconclusive results are not listed. Activity calls are given as the source filed them. The calls were made as follows: active = hit-call score of the fitted dose curve at least 0.9, where 1 is the maximum; inconclusive = response in the unintended direction; inactive = score below 0.9.

{"COMPOUND": "CC(=O)OCC(=O)[C@@]12N=C(C)O[C@@H]1C[C@H]1[C@@H]3CCC4=CC(=O)C=C[C@]4(C)[C@H]3[C@@H](O)C[C@@]12C", "AC50": "16.7 µM (active)"}
{"COMPOUND": "COCc1c(C(C)C)nc(C(C)C)c(/C=C/[C@@H](O)C[C@@H](O)CC(=O)O)c1-c1ccc(F)cc1", "AC50": "inactive"}
{"COMPOUND": "C=CC(C)(CCC=C(C)C)OC(=O)C(C)C (stereo not drawn)", "AC50": "inactive"}
{"COMPOUND": "CCC(C)C=O (stereo not drawn)", "AC50": "inactive"}
{"COMPOUND": "CC(CC=O)CCCC(C)(C)O (stereo not drawn)", "AC50": "inactive"}
{"COMPOUND": "CCC(=O)Oc1ccc(/C(CC)=C(\\CC)c2ccc(OC(=O)CC)cc2)cc1", "AC50": "inactive"}
{"COMPOUND": "CC(C)c1ccc2c(c1)CC[C@H]1[C@](C)(CN)CCC[C@]21C", "AC50": "6.76 µM (active)"}
{"COMPOUND": "CCCCCCOC(=O)C(C)CC (stereo not drawn)", "AC50": "inactive"}
{"COMPOUND": "CC=C1CC2C=CC1C2 (stereo not drawn)", "AC50": "inactive"}
{"COMPOUND": "CCCCC(CC)COC(=O)c1ccccc1O (stereo not drawn)", "AC50": "inactive"}
{"COMPOUND": "Cc1cccc(N)n1", "AC50": "inactive"}
{"COMPOUND": "COC(=O)c1ccc2cc(C(=O)OC)ccc2c1", "AC50": "inactive"}
{"COMPOUND": "N#[N+]c1ccc2c(S(=O)(=O)[O-])cccc2c1O", "AC50": "inactive"}

Data provenance: PubChem BioAssay (EPA / NIEHS)
